# Test system: α-smooth muscle actin (aSMA) positive LL29 cells
# protocol details: Inhibition of the fibrotic process: αSMA staining in TGF-β1 treated LL29 fibroblasts from IPF patients
# condition: Homo sapiens, Fibroblast, read-out: percentage in parentheses after EC50 >10
Exercise: for every item that follows, state its recorded inhibition at 10 µM.
Answer with a number only, understood to be in %.

For reference, reported inhibition at 10 µM for COC1CCN(CC(=O)Nc2cc3cc(-c4cn(C)nn4)cnc3cn2)CC1 [Compound 3078] stands at 41

For reference, reported inhibition at 10 µM for Cn1cc(-c2cc3cc(NC(=O)C(C)(C)F)ncc3cn2)nn1 [Compound 3960] stands at 23.5

For reference, reported inhibition at 10 µM for Cc1cn2c(n1)CN(C(=O)Nc1cc3cc(-c4cnco4)cnc3cn1)CC2 [Compound 4615] stands at 35.6

For reference, reported inhibition at 10 µM for CN1CCN(c2ncc(C(=O)Nc3cc4cc(-c5cnn(C)c5)ncc4cn3)s2)CC1 [Compound 4632] stands at 35.5
